# assayTarget: Neuropeptide Y receptor type 2 (Homo sapiens, UniProt P49146)
# Sequence (P49146 whole entry): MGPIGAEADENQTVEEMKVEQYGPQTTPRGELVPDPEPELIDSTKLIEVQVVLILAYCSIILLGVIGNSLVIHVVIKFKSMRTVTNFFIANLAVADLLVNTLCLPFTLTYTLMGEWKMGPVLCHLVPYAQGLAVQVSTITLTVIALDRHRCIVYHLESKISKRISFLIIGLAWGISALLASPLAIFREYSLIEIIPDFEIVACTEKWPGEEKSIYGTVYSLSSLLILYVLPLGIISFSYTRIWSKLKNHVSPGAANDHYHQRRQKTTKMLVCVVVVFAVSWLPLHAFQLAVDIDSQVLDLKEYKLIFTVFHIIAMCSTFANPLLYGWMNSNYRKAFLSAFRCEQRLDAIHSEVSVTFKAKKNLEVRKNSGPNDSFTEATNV
# assayDetails: Agonist activity at human Y2R expressed in CHO cell membranes assessed as [35S]GTPgammaS binding after 120 mins by liquid scintillation method
Where a SMILES comes first, the peptide text is derived from it. [ ]: non-standard residue; d: D form. The star is where a group is joined. ξ: configuration not given here. ξCha = NC(CC1CCCCC1)C(=O)O; Isobutyryl = CC(C)C(=O)*; Aib = CC(C)(N)C(=O)O; Bz = O=C(c1ccccc1)*; ξAbu = CCC(N)C(=O)O
readoutKind: EC50 (nM)
Reply numerically in nM, unit not repeated.

Use the examples below as a reference point.
| compound | unitName | measured |
| --- | --- | --- |
| CCC(NC(=O)[C@H](CCCNC(=N)N)NC(=O)[C@@H](CC(C)C)NC(=O)[C@H](CO)NC(C)=O)C(=O)NC(CC1CCCCC1)C(=O)NC(CC1CCCCC1)C(=O)N[C@@H](CC(N)=O)C(=O)N[C@@H](CC(C)C)C(=O)NC(C)(C)C(=O)N[C@H](C(=O)N[C@@H](CCCNC(=N)N)C(=O)N[C@@H](CCC(N)=O)C(=O)N[C@@H](CCCNC(=N)N)C(=O)NC(CC1CCCCC1)C(N)=O)[C@@H](C)O (some centres not stated) | nM | 1.3 |
| CCC(NC(=O)[C@H](CCCNC(=N)N)NC(=O)C(C)C)C(=O)NC(CC1CCCCC1)C(=O)NC(CC1CCCCC1)C(=O)N[C@@H](CC(N)=O)C(=O)N[C@@H](CC(C)C)C(=O)NC(C)(C)C(=O)N[C@H](C(=O)N[C@@H](CCCNC(=N)N)C(=O)N[C@@H](CCC(N)=O)C(=O)N[C@@H](CCCNC(=N)N)C(=O)NC(CC1CCCCC1)C(N)=O)[C@@H](C)O (some centres not stated) (Isobutyryl-R[ξAbu][ξCha][ξCha]NL[Aib]TRQR[ξCha]-NH2) | nM | 4.2 |
| CCC(NC(=O)[C@H](CCCNC(=N)N)NC(=O)[C@H](CC(C)C)NC(C)=O)C(=O)NC(CC1CCCCC1)C(=O)NC(CC1CCCCC1)C(=O)N[C@@H](CC(N)=O)C(=O)N[C@@H](CC(C)C)C(=O)NC(C)(C)C(=O)N[C@H](C(=O)N[C@@H](CCCNC(=N)N)C(=O)N[C@@H](CCC(N)=O)C(=O)N[C@@H](CCCNC(=N)N)C(=O)NC(CC1CCCCC1)C(N)=O)[C@@H](C)O (some centres not stated) (Ac-LR[ξAbu][ξCha][ξCha]NL[Aib]TRQR[ξCha]-NH2) | nM | 6.4 |
| CCC(NC(=O)[C@H](CCCNC(=N)N)NC(=O)c1ccccc1)C(=O)NC(CC1CCCCC1)C(=O)NC(CC1CCCCC1)C(=O)N[C@@H](CC(N)=O)C(=O)N[C@@H](CC(C)C)C(=O)NC(C)(C)C(=O)N[C@H](C(=O)N[C@@H](CCCNC(=N)N)C(=O)N[C@@H](CCC(N)=O)C(=O)N[C@@H](CCCNC(=N)N)C(=O)NC(CC1CCCCC1)C(N)=O)[C@@H](C)O (some centres not stated) (Bz-R[ξAbu][ξCha][ξCha]NL[Aib]TRQR[ξCha]-NH2) | nM | 4.6 |

Q) Print Neuropeptide Y receptor type 2 (Homo sapiens, UniProt P49146) EC50 for CCC(NC(=O)[C@H](CCCNC(=N)N)NC(=O)[C@H](CC(C)C)NC(=O)[C@H](CO)NC(C)=O)C(=O)NC(CC1CCCCC1)C(=O)NC(CC1CCCCC1)C(=O)N[C@@H](CC(N)=O)C(=O)N[C@@H](CC(C)C)C(=O)NC(C)(C)C(=O)N[C@H](C(=O)N[C@@H](CCCNC(=N)N)C(=O)N[C@@H](CCC(N)=O)C(=O)N[C@@H](CCCNC(=N)N)C(=O)NC(CC1CCCCC1)C(N)=O)[C@@H](C)O (some centres not stated) .
A) 3

Q) Lab note: Neuropeptide Y receptor type 2 (Homo sapiens, UniProt P49146) assay, enter EC50 for CC(=O)N[C@@H](CO)C(=O)N(C)[C@@H](C)C(=O)N[C@@H](CCCNC(=N)N)C(=O)N[C@@H](Cc1cnc[nH]1)C(=O)NC(CC1CCCCC1)C(=O)NC(CC1CCCCC1)C(=O)N[C@@H](CC(N)=O)C(=O)N[C@@H](CC(C)C)C(=O)NC(C)(C)C(=O)N[C@H](C(=O)N[C@@H](CCCNC(=N)N)C(=O)N[C@@H](CCC(N)=O)C(=O)N[C@@H](CCCNC(=N)N)C(=O)NC(CC1CCCCC1)C(N)=O)[C@@H](C)O (some centres not stated) here
A) 1.2

Q) Using Neuropeptide Y receptor type 2 (Homo sapiens, UniProt P49146) as the test system, report measured EC50 of CC(=O)N[C@@H](CO)C(=O)N1CCC[C@@H]1C(=O)N[C@@H](CCCNC(=N)N)C(=O)N[C@@H](Cc1cnc[nH]1)C(=O)NC(CC1CCCCC1)C(=O)NC(CC1CCCCC1)C(=O)N[C@@H](CC(N)=O)C(=O)N[C@@H](CC(C)C)C(=O)NC(C)(C)C(=O)N[C@H](C(=O)N[C@@H](CCCNC(=N)N)C(=O)N[C@@H](CCC(N)=O)C(=O)N[C@@H](CCCNC(=N)N)C(=O)NC(CC1CCCCC1)C(N)=O)[C@@H](C)O (some centres not stated) .
A) 0.61
